Recorded values, source patent US10981926B2.

Molecular target: F876L mutant Androgen Receptor (AR-F876L) (Homo sapiens (Human), UniProt P10275, F877L)
Sequence (P10275 whole entry F877L): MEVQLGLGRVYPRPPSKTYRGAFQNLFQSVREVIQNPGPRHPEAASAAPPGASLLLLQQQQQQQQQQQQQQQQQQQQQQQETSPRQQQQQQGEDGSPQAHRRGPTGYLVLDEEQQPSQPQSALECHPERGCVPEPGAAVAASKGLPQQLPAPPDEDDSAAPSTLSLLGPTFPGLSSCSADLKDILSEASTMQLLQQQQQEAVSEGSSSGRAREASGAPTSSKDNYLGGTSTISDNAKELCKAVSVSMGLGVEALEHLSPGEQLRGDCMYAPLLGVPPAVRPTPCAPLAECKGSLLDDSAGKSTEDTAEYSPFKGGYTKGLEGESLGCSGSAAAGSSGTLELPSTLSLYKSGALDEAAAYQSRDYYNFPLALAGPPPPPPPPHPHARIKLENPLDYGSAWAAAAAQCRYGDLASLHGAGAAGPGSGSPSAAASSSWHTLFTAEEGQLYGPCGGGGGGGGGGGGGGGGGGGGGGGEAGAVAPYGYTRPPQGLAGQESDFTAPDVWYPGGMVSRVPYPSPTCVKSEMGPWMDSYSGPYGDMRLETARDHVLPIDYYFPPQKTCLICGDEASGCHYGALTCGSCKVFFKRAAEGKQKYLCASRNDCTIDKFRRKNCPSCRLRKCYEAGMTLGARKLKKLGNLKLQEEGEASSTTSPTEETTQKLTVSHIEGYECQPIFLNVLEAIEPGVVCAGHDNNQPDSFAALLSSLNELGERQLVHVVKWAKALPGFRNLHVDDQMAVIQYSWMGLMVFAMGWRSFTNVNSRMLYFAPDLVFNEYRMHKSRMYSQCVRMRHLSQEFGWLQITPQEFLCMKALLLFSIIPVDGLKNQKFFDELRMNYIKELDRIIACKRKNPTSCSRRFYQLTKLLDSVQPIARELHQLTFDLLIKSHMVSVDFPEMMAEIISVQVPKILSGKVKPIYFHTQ
Test: LNCaP-AR-F876L ANT reporter assay (antagonist mode)
Format: cell-based
Conditions: antagonist mode; pIC50 = −Log10(IC50 in Molar); read-out: LNCaP-AR-F876L ANT pIC50 (converted)
Parameter IC50: see the listing below.
Answer in nM, number only, no unit symbol.

Solved entries (count: 3):
Compound	Numeric value
N#Cc1ncc(N2C(=O)C3(CCC3)N(c3ccc(OC4CCN(CCF)CC4)cc3)C2=S)cc1C(F)(F)F	30.9
CC(C)(C)OC(=O)N1CC(F)(F)CC1COc1ccc(N2C(=S)N(c3cnc(C#N)c(C(F)(F)F)c3)C(=O)C23CCC3)cc1 (stereo not shown)	676
Cn1cc2cc(N3C(=S)N(c4cnc(C#N)c(C(F)(F)F)c4)C(=O)C34CCC4)ccc2n1	219

Requested read-out: IC50. Entry: `COc1cc(N2C(=O)C3(CCC3)N(c3ccc4c(cnn4C4CCN(C)CC4)c3)C2=S)cnc1C#N`
282
